# protocol-notes: NCI Yeast Anticancer Drug Screen. Data for the mlh1 rad18 strain (AID 175)
# run-conditions: S. cerevisiae mlh1 rad18 strain growth inhibition; at 50.0 µM (retest, dose inferred, filed as 5.0); active compounds read high
Compounds without any hit were thinned out: in the full panel of roughly 79,000, 15% have a hit.
parameter: growth inhibition (%)

INSERT INTO assay_data (molecule, result_number) VALUES
  ('CCCCC(Cc1ccccc1)(C(=O)O)c1ccccc1 (centres undefined)', 99),
  ('Cn1nc(-c2ccc3c(c2)OCO3)[n+]([O-])c2c(=O)n(C)c(=O)nc1-2', 97),
  ('O=c1c2ccccc2ncn1Cc1ccccc1[N+](=O)[O-]', 18),
  ('CC1C/C(=N\N(C)C)C(C#N)(C#N)C1(C#N)C#N (centres undefined)', 99);

###

# protocol-notes: NCI Yeast Anticancer Drug Screen. Data for the rad50 strain (AID 155);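 further: 0% = growth of vehicle-only cultures of the same strain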
# run-conditions: S. cerevisiae rad50 strain growth inhibition; at 5.0 µM (retest, dose inferred, filed as 0.5)
About 79,000 compounds went through this panel and 15% of them were active in at least one assay; those are over-represented in the sample as a whole. The source made the active and inactive calls. Rule as the data show it: active = growth inhibition above about 70%; inactive = the rest.
Possible outcomes: YES (active), NO (inactive)

INSERT INTO results (compound, assigned_label) VALUES
  ('O=C(CC(=O)c1ccncc1)c1ccccc1', 'NO'),
  ('O=C(Nc1cccc(C(F)(F)F)c1)c1cc(Br)cc(Br)c1O', 'NO'),
  ('N=Cc1cc([N+](=O)[O-])ccc1O', 'NO'),
  ('CC(=O)Oc1c(Br)cc(Br)cc1Br', 'NO'),
  ('CCCC(=O)Oc1ccc(-c2ccccc2)cc1Br', 'NO'),
  ('C/C(CCC(=O)O)=N/Nc1ccc(C(=O)O)cc1', 'NO'),
  ('O=C(NC(=O)C(F)(F)F)Nc1ccc(Cl)cc1', 'NO'),
  ('C=C1C(=O)OC2CC(C)C3C=CC(=O)C3CC12 (configuration not stated)', 'NO'),
  ('NC(=O)N/N=C/c1ccc(Cl)s1', 'NO'),
  ('COc1ccc(C2Oc3ccc(Cl)cc3C=C2[N+](=O)[O-])cc1OC (configuration not stated)', 'YES'),
  ('Cc1ccc(O)c(C(c2ccc([N+](=O)[O-])cc2)c2cc(C)ccc2O)c1', 'NO'),
  ('CC1(C)COC(C)(C(=O)O)OC1', 'NO');

###

# protocol-notes: NCI Yeast Anticancer Drug Screen. Data for the bub3 strain (AID 167)
# run-conditions: S. cerevisiae bub3 mutant strain, at 5.0 µM (retest, dose inferred, filed as 0.5), active compounds read high
About 79,000 compounds went through this panel and 15% of them were active in at least one assay; those are over-represented in the sample as a whole.
Listed here: items and their measured growth inhibition.
parameter: growth inhibition (%)

INSERT INTO assay_data (compound, parameter, result_number) VALUES
  ('ClCCOCCOc1c(Cl)cc(Cl)c(Cl)c1Cl', 'growth inhibition', 3),
  ('Oc1ccc2c(c1)Cc1cc(Br)ccc1-2', 'growth inhibition', 24),
  ('Cc1cc(Cl)ccc1C(=O)c1ccc2ccccc2c1C(=O)O', 'growth inhibition', -24),
  ('O=C(O)c1ccccc1SC(Sc1ccccc1C(=O)O)c1cccc(Cl)c1', 'growth inhibition', 9),
  ('Cc1ccc(S(=O)(=O)Nn2c(S)c(C#N)c(-c3ccc([N+](=O)[O-])cc3)c(C#N)c2=O)cc1', 'growth inhibition', 45),
  ('O=C(O)C(Cc1ccc(O)cc1)NC(=O)N(c1ccccc1)c1ccccc1 (stereo not given)', 'growth inhibition', 2),
  ('c1ccc(-c2nc3nc4ccccc4nc3nc2-c2ccccn2)nc1', 'growth inhibition', -4),
  ('COC(=O)c1c(/C(=N/Nc2ccc([N+](=O)[O-])cc2)[N+](=O)[O-])ssc1=N', 'growth inhibition', 6),
  ('O=C(O)c1nc2cc(C(F)(F)F)ccc2nc1Nc1ccc(Cl)c(Cl)c1', 'growth inhibition', 16),
  ('COc1cc(C/C=C/c2ccccc2)c(OC)cc1O', 'growth inhibition', 20);
